tested-target: T1, CRH (NT-Biotin) (human and mouse (same sequence), not fully specified; biotin at the N-terminus)
T1 peptide: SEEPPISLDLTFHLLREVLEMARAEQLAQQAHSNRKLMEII
experimental-details: ELISA, biotinylated CRH on streptavidin plate
endpoint: EC50 (nM)
Numbers only; they are read as nM.

// below: answered binders
binder: PR302045 (antibody, human IgG1, kappa, V domains shown, humanized variant of PR301777) VH: EVQLVESGGGLVQPGGSLKLSCAASGFTFSNYWMNWVRQASGKGLEWVGEIRLKSNNYATHYAESVKGRFTISRDDSKNTAYLQMNSLKTEDTAVYYCTRGTLVYWGQGTLVTVSS VL: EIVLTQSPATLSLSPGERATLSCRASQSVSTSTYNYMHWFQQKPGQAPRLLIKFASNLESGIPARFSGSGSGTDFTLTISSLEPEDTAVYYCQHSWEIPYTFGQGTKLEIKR
readout-units: nM
EC50: 0.128
//
binder: PR302069 (antibody, human IgG1, kappa, V domains shown, humanized variant of PR301777) VH: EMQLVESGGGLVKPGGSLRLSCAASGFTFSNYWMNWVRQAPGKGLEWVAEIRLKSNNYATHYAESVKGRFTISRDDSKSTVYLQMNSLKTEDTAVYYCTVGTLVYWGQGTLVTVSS VL: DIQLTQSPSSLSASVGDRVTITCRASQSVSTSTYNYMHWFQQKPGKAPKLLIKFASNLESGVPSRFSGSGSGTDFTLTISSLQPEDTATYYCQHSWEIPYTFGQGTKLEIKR
readout-units: nM
EC50: 0.061
//
binder: PR301777 (antibody, human IgG1, kappa, V domains shown, Series 5; mouse variable domains, human IgG1 wildtype Fc) VH: EMKLEESGGGLVQPGGSMKLSCVASGFTFSNYWMNWVRQSPEKGLEWVAEIRLKSNNYATHYAESVKGRFTISRDDSKSGVYLQMNNLGAEDTGIYYCTVGTLVYWGQGTLVTVSA VL: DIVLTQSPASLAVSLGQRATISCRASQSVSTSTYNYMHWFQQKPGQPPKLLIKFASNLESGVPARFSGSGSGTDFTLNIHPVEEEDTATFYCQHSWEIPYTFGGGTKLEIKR
readout-units: nM
EC50: 0.043

// sample PR302050 (antibody, human IgG1, kappa, V domains shown, humanized variant of PR301777) VH: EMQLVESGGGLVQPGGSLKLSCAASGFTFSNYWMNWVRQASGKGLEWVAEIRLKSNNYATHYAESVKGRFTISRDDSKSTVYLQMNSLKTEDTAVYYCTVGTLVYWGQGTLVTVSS VL: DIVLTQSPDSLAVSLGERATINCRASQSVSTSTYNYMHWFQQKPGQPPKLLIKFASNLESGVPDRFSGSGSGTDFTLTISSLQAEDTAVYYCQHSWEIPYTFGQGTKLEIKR , its EC50 was 0.021

// sample PR302036 (antibody, human IgG1, kappa, V domains shown, humanized variant of PR301777) VH: EMQLVESGGGLVQPGGSLRLSCAASGFTFSNYWMNWVRQAPGKGLEWVAEIRLKSNNYATHYAESVKGRFTISRDDSKSSVYLQMNSLKTEDTAVYYCTVGTLVYWGQGTLVTVSS VL: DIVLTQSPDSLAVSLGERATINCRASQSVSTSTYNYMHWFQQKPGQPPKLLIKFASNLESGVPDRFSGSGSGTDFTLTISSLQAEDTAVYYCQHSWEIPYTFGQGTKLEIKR , its EC50 was 0.04
